Tested on: 362531-283-R-J2-PDC complex spheroid viability;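 further: spheroids exposed to the agents for 7 days before readout; luminescence viability as percent of DMSO vehicle control wells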
Assay: Anticancer human tumor 362531-283-R-J2-PDC patient-derived colon adenocarcinoma cell line growth inhibition [RAS]
Settings: second compound 0.01 µM; first compound 0.1 µM; active compounds read low
Experimental readout: viability, T/C

Consider the following illustrative entries.
Cc1nc(N2CCC3(CC2)COC(C)C3N)c(CO)nc1Sc1ccnc(N)c1Cl (stereo not given) + C=CC(=O)N1CCN(c2nc(OCC3CCCN3C)nc3c(F)c(-c4nc(N)cc(C)c4C(F)(F)F)c(Cl)cc23)C(C)C1 :: 101%
CCC(CC)c1cc(NC2CCC(N)C2)n2nccc2n1 (stereo not given) + C=CC(=O)N1CCN(c2nc(OCC3CCCN3C)nc3c(F)c(-c4nc(N)cc(C)c4C(F)(F)F)c(Cl)cc23)C(C)C1 :: 108%
C=CC(=O)Nc1cc(Nc2nccc(-c3cn(C)c4ccccc34)n2)c(OC)cc1N(C)CCN(C)C + C=CC(=O)N1CCN(c2nc(OCC3CCCN3C)nc3c(F)c(-c4nc(N)cc(C)c4C(F)(F)F)c(Cl)cc23)C(C)C1 :: 98.3%
Nc1ccn(C2OC(CO)C(O)C2(F)F)c(=O)n1 (stereo not given) + C=CC(=O)N1CCN(c2nc(OCC3CCCN3C)nc3c(F)c(-c4nc(N)cc(C)c4C(F)(F)F)c(Cl)cc23)C(C)C1 :: 70%
CC1(O)CCCC1n1c(=O)c(C(F)F)cc2cnc(NC3CCN(S(C)(=O)=O)CC3)nc21 (stereo not given) + C=CC(=O)N1CCN(c2nc(OCC3CCCN3C)nc3c(F)c(-c4nc(N)cc(C)c4C(F)(F)F)c(Cl)cc23)C(C)C1 :: 97.1%

Fill in reported viability, T/C for this entry: CC(Nc1ccc2c(c1)OCCn1cc(N3C(=O)OCC3C(F)F)nc1-2)C(N)=O (stereo not given) + C=CC(=O)N1CCN(c2nc(OCC3CCCN3C)nc3c(F)c(-c4nc(N)cc(C)c4C(F)(F)F)c(Cl)cc23)C(C)C1
86.2%

Please supply the value of reported viability, T/C for the item O=C(c1ccc(F)c(F)c1Nc1ccc(I)cc1F)N1CC(O)([C@@H]2CCCCN2)C1 + C=CC(=O)N1CCN(c2nc(OCC3CCCN3C)nc3c(F)c(-c4nc(N)cc(C)c4C(F)(F)F)c(Cl)cc23)C(C)C1
83.9%

State, in one line, measured viability, T/C of CC(=O)OC12COC1CC(O)C1(C)C(=O)C(O)C3=C(C)C(OC(=O)C(O)C(NC(=O)OC(C)(C)C)c4ccccc4)CC(O)(C(OC(=O)c4ccccc4)C21)C3(C)C (stereo not given) + C=CC(=O)N1CCN(c2nc(OCC3CCCN3C)nc3c(F)c(-c4nc(N)cc(C)c4C(F)(F)F)c(Cl)cc23)C(C)C1
87.8%

Quick one: give measured viability, T/C for CC(C)NCC(C(=O)N1CCN(c2ncnc3c2C(C)CC3O)CC1)c1ccc(Cl)cc1 (stereo not given) + C=CC(=O)N1CCN(c2nc(OCC3CCCN3C)nc3c(F)c(-c4nc(N)cc(C)c4C(F)(F)F)c(Cl)cc23)C(C)C1
101%

Input C[C@@H](NC(=O)c1ncnc(N)c1Cl)c1ncc(C(=O)Nc2cc(C(F)(F)F)c(Cl)cn2)s1 + C=CC(=O)N1CCN(c2nc(OCC3CCCN3C)nc3c(F)c(-c4nc(N)cc(C)c4C(F)(F)F)c(Cl)cc23)C(C)C1 , output reported viability, T/C.
95%

# credit: PubChem BioAssay AID2060909
